// data source = PubChem BioAssay (Tox21)

# TARGET OR TEST SYSTEM: Androgen receptor (Homo sapiens) (UniProt P10275)
# Sequence (P10275 whole entry, looked up): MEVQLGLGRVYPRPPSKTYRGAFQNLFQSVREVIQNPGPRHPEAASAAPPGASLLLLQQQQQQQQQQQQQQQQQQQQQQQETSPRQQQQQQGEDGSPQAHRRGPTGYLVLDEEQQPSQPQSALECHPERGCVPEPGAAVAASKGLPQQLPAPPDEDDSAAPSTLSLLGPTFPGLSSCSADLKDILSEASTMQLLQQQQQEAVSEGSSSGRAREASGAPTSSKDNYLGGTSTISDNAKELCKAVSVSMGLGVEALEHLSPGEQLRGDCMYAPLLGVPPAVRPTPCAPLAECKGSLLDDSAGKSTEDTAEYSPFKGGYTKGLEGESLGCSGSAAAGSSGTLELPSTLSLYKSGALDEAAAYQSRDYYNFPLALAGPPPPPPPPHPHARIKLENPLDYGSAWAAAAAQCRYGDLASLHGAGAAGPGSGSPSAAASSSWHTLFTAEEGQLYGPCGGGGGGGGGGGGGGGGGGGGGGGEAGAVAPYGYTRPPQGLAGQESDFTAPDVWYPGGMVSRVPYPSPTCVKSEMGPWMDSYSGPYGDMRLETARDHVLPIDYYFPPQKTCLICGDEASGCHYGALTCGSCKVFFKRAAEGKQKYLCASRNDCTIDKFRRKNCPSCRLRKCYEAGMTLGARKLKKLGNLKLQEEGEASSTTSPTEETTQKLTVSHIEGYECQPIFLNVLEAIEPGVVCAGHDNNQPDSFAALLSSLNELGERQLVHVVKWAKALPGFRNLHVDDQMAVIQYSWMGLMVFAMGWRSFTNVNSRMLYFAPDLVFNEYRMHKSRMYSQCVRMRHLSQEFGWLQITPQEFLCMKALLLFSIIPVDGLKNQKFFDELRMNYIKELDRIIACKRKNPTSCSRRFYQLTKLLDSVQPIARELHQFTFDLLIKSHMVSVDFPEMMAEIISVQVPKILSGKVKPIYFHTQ
# TEST NAME: qHTS assay to identify small molecule antagonists of the androgen receptor (AR) signaling pathway using the MDA cell line (AID 743042; further: nearly all actives have a fitted effect of over 55% in size)
# MEASUREMENT CONTEXT: MDA-kb2 AR-luc, MMTV luciferase, R1881 antagonist, 16 h; series mostly up to 70.3 µM
Records with an inconclusive call do not appear. Calls of active or inactive are those of the source. The call rests on the fitted dose curve; in most records, active means well fitted inhibition curve with a large enough effect in the repeat runs; inconclusive means weak or mixed curves, or effect the other way; inactive means no such curve, though single readings can be large or run the other way.
Outcomes: true = active, false = inactive

{"columns": ["MOLECULE", "DISCRETE LABEL"],
 "data": [
  ["Cc1cc(O)c(C(C)(C)C)cc1C(C)(C)C", "true"],
  ["CC(C)C(C)(C)C(C)(C)C(C)(C)S", "false"],
  ["O=C1CCCc2c1cc1ccc3cccc4ccc2c1c34", "false"],
  ["CCCCCCCCCCCCCCCC(=O)OC[C@H](O)[C@H]1OC(=O)C(O)=C1O", "false"],
  ["CN(C)C(=O)C1(N2CCCCC2)CCN(CC[C@@]2(c3ccc(Cl)c(Cl)c3)CN(C(=O)c3ccccc3)CCO2)CC1", "true"],
  ["Clc1ccc2cc3ccccc3cc2c1", "false"],
  ["CCOC(=O)c1nc(C(Cl)(Cl)Cl)n(-c2ccc(Cl)cc2Cl)n1", "true"],
  ["Fc1ccc([C@@H]2CCNC[C@H]2COc2ccc3c(c2)OCO3)cc1", "true"],
  ["CC(C)(C)CC(C)(C)c1ccc(O)c(Cc2ccc(Cl)cc2Cl)c1", "false"],
  ["Nc1ccc(N)c2ccccc12", "true"],
  ["O=C(Nc1cccc([N+](=O)[O-])c1)c1cc2ccccc2cc1O", "true"],
  ["Cc1ccc(O)c2ncccc12", "true"],
  ["NNC(=O)c1cccc(C(=O)NN)c1", "false"],
  ["CS(=O)(=O)CCNCc1ccc(-c2ccc3ncnc(Nc4ccc(OCc5cccc(F)c5)c(Cl)c4)c3c2)o1", "false"],
  ["O=S1(=O)CC(Cl)(Cl)C(Cl)(Cl)C1", "true"],
  ["COc1cccc2c1C(=O)c1c(O)c3c(c(O)c1C2=O)C[C@@](O)(C(=O)CO)C[C@@H]3O[C@H]1C[C@H](N)[C@H](O[C@@H]2CCCCO2)[C@H](C)O1", "true"],
  ["CC(C)(C)C(=O)OCOC(=O)C1N2C(=O)CC2S(=O)(=O)C1(C)C (stereo not drawn)", "false"],
  ["CCCCCCCCCCCCCC[P+](CCCC)(CCCC)CCCC (tested in a mixture with another compound)", "true"],
  ["CCCCCCCCCCC=O", "false"],
  ["[O-][n+]1ccccc1SSc1cccc[n+]1[O-]", "true"],
  ["Cc1cc(O)c(C(C)(C)C)cc1Sc1cc(C(C)(C)C)c(O)cc1C", "true"],
  ["CCCCCCOC(=O)c1ccc(O)cc1", "false"],
  ["Oc1ccc2c(c1)-c1ccccc1C2", "false"]
]}
